- Target Entity: SNARE complex (VAMP, syntaxin and SNAP-25 bound to GST) (UniProt P60880)
- Sequence (P60880 whole entry, one chain of several): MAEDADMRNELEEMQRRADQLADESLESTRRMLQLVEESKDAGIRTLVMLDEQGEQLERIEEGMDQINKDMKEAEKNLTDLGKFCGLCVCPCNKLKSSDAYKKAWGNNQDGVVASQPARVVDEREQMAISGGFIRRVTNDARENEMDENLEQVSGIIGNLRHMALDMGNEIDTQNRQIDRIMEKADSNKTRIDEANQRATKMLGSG
- Method: competition ELISA: VAMP on plate, SNAP-25-GST + syntaxin, anti-GST detection; compound at 2.5 mM
*: point of attachment. Palmitoyl = CCCCCCCCCCCCCCCC(=O)*; NHhexadecyl = CCCCCCCCCCCCCCCCN*; Myristoyl = CCCCCCCCCCCCCC(=O)*
Observable: % inhibition formation SNARE complex (%)
Answer format: numeric, % implied, no suffix.

Past entries and their recorded results:
# Binder, % inhibition formation SNARE complex [%]
measured = [
    ("Palmitoyl-DHFLDWM-NH2 [Palm-SEQ ID NO:25-NH2]", 53),
    ("Palmitoyl-DHFQQRM-NH2 [Palm-SEQ ID NO:24-NH2]", 44),
    ("Ac-EHLKKWM-NH2 [Ac-SEQ ID NO:8-NH2]", 44),
    ("Ac-QHLKEWM-NH2 [Ac-SEQ ID NO:12-NH2]", 71),
]

Query: Consider the binder Palmitoyl-DHFLNWM-NH2 [Palm-SEQ ID NO:34-NH2] and give its measured % inhibition formation SNARE complex.
Result: 51

Query: Item under review: Ac-EDLKRWM-NHhexadecyl [Ac-SEQ ID NO:14-NH-(CH2)15-CH3] . Reported % inhibition formation SNARE complex?
Result: 35

Query: Returns the measured % inhibition formation SNARE complex for the input binder. Input: Myristoyl-NHFLNWM-NH2 [Myr-SEQ ID NO:15-NH2]
Result: 19

Query: Sample Ac-EHLKQWM-NH2 [Ac-SEQ ID NO:1-NH2] — what was its % inhibition formation SNARE complex?
Result: 63

Query: Which % inhibition formation SNARE complex is listed for Ac-QDFLHWM-NH2 [Ac-SEQ ID NO:2-NH2] ?
Result: 64

Query: Need % inhibition formation SNARE complex of Ac-QHLKNWM-NH2 [Ac-SEQ ID NO:27-NH2] , thanks.
Result: 14
